# System: HeLa
# test: Antitumor activity against human HeLa cells after 72 hrs by MTT assay
# Type: functional, cell-based
Note to self: IC50 under 4 µM means true, ties and anything higher get false.

Consider the following illustrative entries.
Clc1ccccc1/C=C\c1nc2ccc(C3=NCCN3)cc2[nH]1    false
C(=C/c1nc2ccc(C3=NCCN3)cc2[nH]1)/c1ccccc1.Cl    false
N#Cc1ccc2nc3ccc4ccccc4n3c2c1    true
N=C(NN1CCOCC1)c1ccc2nc(/C=C/c3ccccc3Cl)[nH]c2c1    true

Is IC50 of N#Cc1ccc(/C=C/c2nc3ccccc3[nH]2)cc1 strictly below 4 µM?
false

Is IC50 of N=C(NN1CCOCC1)c1ccc2nc(/C=C\c3ccccc3)[nH]c2c1 strictly below 4 µM?
false

Is IC50 of N=C(N)c1ccc2nc(/C=C\c3ccccc3)[nH]c2c1 strictly below 4 µM?
false

Is IC50 of N=C(N)c1ccc2ccc3nc4ccccc4n3c2c1 strictly below 4 µM?
false

Is IC50 of c1ccc2c(c1)ccc1nc3ccccc3n12 strictly below 4 µM?
false

Is IC50 of N=C(NN1CCOCC1)c1ccc2nc(/C=C/c3ccccc3)[nH]c2c1 strictly below 4 µM?
false

Is IC50 of CC(C)NC(=N)c1ccc2nc(/C=C\c3ccccc3Cl)[nH]c2c1 strictly below 4 µM?
false

Is IC50 of Cl.c1ccc2c(c1)ccc1nc3ccc(C4=NCCN4)cc3n12 strictly below 4 µM?
true

Is IC50 of N=C(NN1CCOCC1)c1ccc2nc(/C=C\c3ccccc3Cl)[nH]c2c1 strictly below 4 µM?
false

Is IC50 of CC(C)NC(=N)c1ccc2nc(/C=C\c3ccccc3)[nH]c2c1 strictly below 4 µM?
false

Is IC50 of CC(C)NC(=N)c1ccc2nc(/C=C/c3ccccc3Cl)[nH]c2c1 strictly below 4 µM?
false

Is IC50 of N#Cc1ccc2nc(/C=C/c3ccccc3)[nH]c2c1 strictly below 4 µM?
true

Is IC50 of N=C(NN1CCOCC1)c1ccc2ccc3nc4ccccc4n3c2c1 strictly below 4 µM?
false

Is IC50 of CC(C)NC(=N)c1ccc2nc(/C=C/c3ccccc3)[nH]c2c1 strictly below 4 µM?
false

Is IC50 of COc1cccc2c1C(=O)c1c(O)c3c(c(O)c1C2=O)C[C@@](O)(C(=O)CO)C[C@@H]3O[C@H]1C[C@H](N)[C@H](O)[C@H](C)O1 [DOXORUBICIN] strictly below 4 µM?
true

Is IC50 of N=C(N)c1ccc2nc(/C=C/c3ccccc3)[nH]c2c1 strictly below 4 µM?
true

Is IC50 of Cl.N=C(NN1CCOCC1)c1ccc2nc3ccc4ccccc4n3c2c1 strictly below 4 µM?
true

Is IC50 of N=C(N)c1ccc2nc(/C=C\c3ccccc3Cl)[nH]c2c1 strictly below 4 µM?
false

Is IC50 of c1ccc2c(c1)nc1ccc3ccc(C4=NCCN4)cc3n12 strictly below 4 µM?
false

Is IC50 of COc1cc([C@@H]2c3cc4c(cc3[C@@H](O[C@@H]3O[C@@H]5CO[C@@H](C)O[C@H]5[C@H](O)[C@H]3O)[C@H]3COC(=O)[C@H]23)OCO4)cc(OC)c1O [ETOPOSIDE] strictly below 4 µM?
true
